Origin of measurements: patent US20240226230A1

- tested.target: endogenous importin-α1 (human, UniProt P52292 2-529)
- method: co-IP of GFP-tagged KPNB1 truncations, western blot
Where no end group is shown, it is not given here.
recorded.metric: binding result

binder="GFP-KPNB1 H1-7 (receptor, not shown: GFP/EGFP tag (pEGFP-C1, Clontech)) GGGSGGGSGGGSMELITILEKTVSPDRLELEAAQKFLERAAVENLPTFLVELSRVLANPGNSQVARVAAGLQIKNSLTSKDPDIKAQYQQRWLAIDANARREVKNYVLQTLGTETYRPSSASQCVAGIACAEIPVNQWPELIPQLVANVTNPNSTEHMKESTLEAIGYICQDIDPEQLQDKSNEILTAIIQGMRKEEPSNNVKLAATNALLNSLEFTKANFDKESERHFIMQVVCEATQCPDTRVRVAALQNLVKIMSLYYQYMETYMGPALFAITIEAMKSDIDEVALQGIEFWSNVCDEEMDLAIEASEAAEQGRPP" result="no binding"
binder="{GFP}-GGGSGGGSGGGSMELITILEKTVSPDRLELEAAQKFLERAAVEN (receptor, also: GFP tag fused N-terminally, not in chain, (GGGS)3 linker in chain, not shown: GFP/EGFP tag (pEGFP-C1, Clontech)) [GFP-KPNB1 H1]" result="no binding"
binder="GFP-KPNB1 H1-5 (receptor, not shown: GFP/EGFP tag (pEGFP-C1, Clontech)) GGGSGGGSGGGSMELITILEKTVSPDRLELEAAQKFLERAAVENLPTFLVELSRVLANPGNSQVARVAAGLQIKNSLTSKDPDIKAQYQQRWLAIDANARREVKNYVLQTLGTETYRPSSASQCVAGIACAEIPVNQWPELIPQLVANVTNPNSTEHMKESTLEAIGYICQDIDPEQLQDKSNEILTAIIQGMRKEEPSNNVKLAATNALLNSLEFTKANF" result="no binding"
